Target: T1, human vascular endothelial growth factor receptor-2 Fc chimera (KDR-Fc) (human, UniProt P35968 20-764)
T1 construct: range 1-764; also called human VEGF-R2-Fc; not shown: human IgG1 Fc
T1 sequence (P35968 20-764 limits assumed, change not shown, form in doubt): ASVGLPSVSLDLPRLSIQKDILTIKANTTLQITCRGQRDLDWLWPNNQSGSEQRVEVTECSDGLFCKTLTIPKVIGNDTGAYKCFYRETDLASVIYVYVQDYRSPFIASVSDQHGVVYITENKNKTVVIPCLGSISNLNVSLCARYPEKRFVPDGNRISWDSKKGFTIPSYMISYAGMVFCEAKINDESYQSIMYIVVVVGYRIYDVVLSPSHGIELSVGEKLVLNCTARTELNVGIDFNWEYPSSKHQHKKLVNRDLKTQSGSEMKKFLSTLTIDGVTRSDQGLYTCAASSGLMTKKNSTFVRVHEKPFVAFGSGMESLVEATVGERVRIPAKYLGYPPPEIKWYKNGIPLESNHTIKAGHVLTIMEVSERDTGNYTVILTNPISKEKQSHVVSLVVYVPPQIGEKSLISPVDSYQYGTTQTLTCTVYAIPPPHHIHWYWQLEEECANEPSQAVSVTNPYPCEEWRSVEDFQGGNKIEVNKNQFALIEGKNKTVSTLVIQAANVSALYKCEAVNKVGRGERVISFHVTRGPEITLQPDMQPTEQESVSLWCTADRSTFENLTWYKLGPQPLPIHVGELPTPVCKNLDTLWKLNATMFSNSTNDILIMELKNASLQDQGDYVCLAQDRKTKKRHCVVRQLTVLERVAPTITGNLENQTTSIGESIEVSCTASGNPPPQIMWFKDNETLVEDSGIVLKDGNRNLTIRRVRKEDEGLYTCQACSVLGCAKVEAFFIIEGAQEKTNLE
Experiment: BIAcore, KDR-Fc immobilised on CM5 chip
koff listing for selected binders.
Give just the number in s⁻¹; leave the unit off.

[[record]]
binder = "E29, E. coli-expressed, His6 (designed binder, soluble E. coli form; N-terminal residues added for expression not described) EVVAATPTSLLISWRHPHFPTRYYRITYGETGGNSPVQEFTVPLQPPTATISGLKPGVDYTITGYAVTVERNGRVLMTPISINYRTEIDKPSQHHHHHH"
property_measured = "koff"
experimental_result = "7e-05"


Name the reported koff value associated with the binder E19, E. coli-expressed, His6 (designed binder, soluble E. coli form; N-terminal residues added for expression not described) EVVAATPTSLLISWRHPHFPTRYYRITYGETGGNSPVQEFTVPLQPPTATISGLKPGVDYTITGYAVTVERNGRHLMTPISINYRTEIDKPSQHHHHHH 1.7e-05
